Molecular target: Tyrosinase (Mus musculus)
Sequence (P11344 whole entry): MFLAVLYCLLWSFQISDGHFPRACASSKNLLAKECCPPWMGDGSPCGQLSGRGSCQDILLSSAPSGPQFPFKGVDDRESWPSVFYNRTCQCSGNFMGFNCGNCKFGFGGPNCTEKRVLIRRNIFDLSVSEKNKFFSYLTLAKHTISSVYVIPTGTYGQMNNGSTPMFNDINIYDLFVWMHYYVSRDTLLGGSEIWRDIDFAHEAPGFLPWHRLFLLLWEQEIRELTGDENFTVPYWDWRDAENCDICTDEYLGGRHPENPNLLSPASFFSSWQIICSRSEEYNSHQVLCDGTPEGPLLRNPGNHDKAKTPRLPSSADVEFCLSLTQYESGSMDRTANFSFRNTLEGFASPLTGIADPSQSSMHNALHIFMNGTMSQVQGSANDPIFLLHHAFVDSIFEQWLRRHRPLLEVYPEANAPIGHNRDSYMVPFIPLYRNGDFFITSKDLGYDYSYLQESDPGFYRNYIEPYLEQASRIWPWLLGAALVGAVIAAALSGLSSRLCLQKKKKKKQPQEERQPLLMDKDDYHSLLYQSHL
VALUE_TYPE: IC50 (µM)
Please respond with the number in µM and leave the unit unwritten.

Need IC50, item `COc1cc(O)c(C(=O)/C=C/c2ccccc2)c(O)c1C` 30.1

---

Biological target: UniProt P11344
Experiment: Inhibition of tyrosinase in mouse B16F0 cells assessed as reduction in melanin production incubated for 24 hrs by spectrophotometric analysis
Assay type: cell-based
VALUE_TYPE: IC50 (µM)
Please respond with the number in µM and leave the unit unwritten.

Need IC50, item `COc1cc(O)c(C(=O)/C=C/c2ccccc2)c(O)c1C` 25
